TESTED_SYSTEM: UniProt:Q02127
Sequence (Q02127 whole entry): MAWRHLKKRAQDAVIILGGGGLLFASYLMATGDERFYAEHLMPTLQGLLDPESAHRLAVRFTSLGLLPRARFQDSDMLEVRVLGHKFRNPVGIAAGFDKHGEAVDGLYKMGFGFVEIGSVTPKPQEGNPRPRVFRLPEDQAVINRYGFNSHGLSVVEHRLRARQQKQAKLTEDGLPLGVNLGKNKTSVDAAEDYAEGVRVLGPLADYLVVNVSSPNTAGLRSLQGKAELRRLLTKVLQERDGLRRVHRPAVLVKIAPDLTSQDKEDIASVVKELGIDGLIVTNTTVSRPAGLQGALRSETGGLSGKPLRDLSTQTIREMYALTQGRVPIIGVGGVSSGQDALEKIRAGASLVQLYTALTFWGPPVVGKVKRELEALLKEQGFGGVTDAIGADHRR
ASSAY_NAME: Inhibition of recombinant human DHODH followed by DHO substrate by DCIP dye absorbance based spectrophotometric analysis
PROPERTY: IC50 (pM)
Report the figure in pM without appending any unit label.

Can you share its IC50? I mean this compound: CCn1c(CO)nn(-c2nc(OC(C)C(F)(F)F)c(C(=O)Nc3c(F)cccc3Cl)cc2F)c1=O (stereo unspecified)
200

---

ASSAY_NAME: Half life in C57BL mouse at 2 mg/kg,iv measured upto 24 hrs by LC-MS/MS analysis
Type: ADME, organism-based
REPORTED_CONDITIONS: in vivo
Binary call on half-life: 1 (yes) from 5 h upward, 0 (no) beneath that.

GIVEN_SMILES: CCn1c(CO)nn(-c2cc3c([C@@H](C)C(F)(F)F)cn(-c4ccccc4C)c(=O)c3cc2F)c1=O
LABEL_CLASS: 0 (no)

Threshold query (half-life >= 5 h) on `CCn1c(CO)nn(-c2cc3c(C(C)C)cn(-c4ccccc4C)c(=O)c3cc2F)c1=O`
1 (yes)

Check `CCn1c(CO)nn(-c2cc3c(C(C)C)cn(-c4c(C)cnc(OC)c4Cl)c(=O)c3cc2F)c1=O` too.
1 (yes)

Check `CCn1c(CO)nn(-c2cc3c(C(C)C)cn(-c4ccccc4C(F)(F)F)c(=O)c3cc2F)c1=O` too.
0 (no)
